subject-of-test: T1, human CD47 on cells (SHP-77 tumor cells, human red blood cells, CCRF-CEM cells, human CD47 CHO-K1 stable cell … (human, UniProt Q08722 19-323))
T1 construct: whole, on cells; also called RBC
test-summary: flow cytometry on SHP-77 cells
Recorded Fitted Maximal MFI, one value per entry.

binder	Fitted Maximal MFI
108VH10.Mq / 108VL10.Me (antibody, V domains shown, 4D5-framework series; constant regions not restated for this series; also called VH10.Mq VL10.Me) VH: EVQLVESGGGLVQPGGSLRLSCAASGFTFSHHWIHWVRQAPGKGLEWVAMIDASDSETRLSDSVKGRFTISADTSKNTAYLQMNSLRAEDTAVYYCSRLGRYYFDYWGQGTLVTVSS VL: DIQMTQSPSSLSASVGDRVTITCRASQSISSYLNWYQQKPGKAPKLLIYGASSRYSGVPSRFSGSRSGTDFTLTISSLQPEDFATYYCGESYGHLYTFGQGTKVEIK	27400 MFI
108VH5.M24 / 108VL1.M5 (antibody, human IgG4 S228P, kappa, V domains shown, Full-length IgG4 (S228P), kappa; also called VH5.M24 VL1.M5) VH: EVQLVQSGAEVKKPGASVKVSCKASGYTFTHHWMHWVRQAPGQGLEWMGMIDASDLETRYAQKFQGRVTMTRDTSTSTVYMELSSLRSEDTAVYYCARLGRYYFDYWGQGTLVTVSS VL: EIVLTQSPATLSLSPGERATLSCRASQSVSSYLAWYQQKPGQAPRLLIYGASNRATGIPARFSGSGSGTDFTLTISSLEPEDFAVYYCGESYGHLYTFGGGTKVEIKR	38700 MFI
108VH4.M4-VL1.M1 (antibody, V domains shown, also called original humanized 108C10A6 antibody) VH: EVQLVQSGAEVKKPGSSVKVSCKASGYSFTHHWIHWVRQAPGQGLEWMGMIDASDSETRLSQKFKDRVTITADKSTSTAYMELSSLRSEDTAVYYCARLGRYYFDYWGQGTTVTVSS VL: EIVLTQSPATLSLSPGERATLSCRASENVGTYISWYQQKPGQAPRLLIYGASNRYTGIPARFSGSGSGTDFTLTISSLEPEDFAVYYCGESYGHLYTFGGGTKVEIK	46600 MFI
